tgt: Potassium voltage-gated channel subfamily A member 5 (Homo sapiens)
Sequence (P22460 whole entry): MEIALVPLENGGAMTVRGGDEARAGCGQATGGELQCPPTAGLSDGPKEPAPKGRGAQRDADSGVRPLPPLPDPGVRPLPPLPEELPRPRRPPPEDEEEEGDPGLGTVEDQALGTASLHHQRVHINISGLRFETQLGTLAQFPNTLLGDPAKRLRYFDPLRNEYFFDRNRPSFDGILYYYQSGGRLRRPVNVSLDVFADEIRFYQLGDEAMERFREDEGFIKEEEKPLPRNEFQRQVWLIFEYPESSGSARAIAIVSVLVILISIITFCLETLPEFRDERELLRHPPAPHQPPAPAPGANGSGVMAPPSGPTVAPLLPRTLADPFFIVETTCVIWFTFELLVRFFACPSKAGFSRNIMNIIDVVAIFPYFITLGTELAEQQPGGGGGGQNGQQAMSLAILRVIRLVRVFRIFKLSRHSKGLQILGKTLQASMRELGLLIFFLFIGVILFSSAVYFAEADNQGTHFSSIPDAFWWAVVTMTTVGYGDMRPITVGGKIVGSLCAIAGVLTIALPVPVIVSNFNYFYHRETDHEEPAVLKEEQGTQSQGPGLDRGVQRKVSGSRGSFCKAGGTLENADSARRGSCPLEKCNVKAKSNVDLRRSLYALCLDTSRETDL
method-summary: Inhibition of human Kv1.5 channel expressed in mouse L929 cells by EP voltage clamp technique
pIC50: −log10 of the molar value.
property-measured: pIC50

compound: CC1=C(C(=O)N2CCC2)C(c2ccc(Cl)c(Cl)c2)n2nccc2N1 (stereo unspecified)
tgt: Potassium voltage-gated channel subfamily A member 5 (Homo sapiens)
measurement: 6.01
//
compound: CC1=C(C(=O)N2CCN(c3ccc(F)cc3)CC2)C(c2ccc(Cl)cc2)n2nccc2N1 (stereo unspecified)
tgt: Potassium voltage-gated channel subfamily A member 5 (Homo sapiens)
measurement: 6.36
//
compound: CC1=C(C(=O)N2CCN(c3ccc(F)cc3)CC2)C(c2ccc(C)c(C)c2)n2nccc2N1 (stereo unspecified)
tgt: Potassium voltage-gated channel subfamily A member 5 (Homo sapiens)
measurement: 6.12

1 = CC1=C(C(=O)N2CCN(c3ccc(F)cc3)CC2)C(c2cc(C)cc(C)c2)n2nccc2N1 (stereo unspecified)
2 = CC1=C(C(=O)N2CCCCC2)C(c2ccc(Cl)c(Cl)c2)n2nccc2N1 (stereo unspecified)
3 = CC1=C(C(=O)N2CCCCCC2)C(c2ccc(Cl)c(Cl)c2)n2nccc2N1 (stereo unspecified)
List these items ordered by pIC50, big to small. State the ranking by listing the labels in the requested order.
2, 3, 1
